Hi there, I'd appreciate the recorded Herbicidal effect, redroot pigweed for every entry that follows.
tested on: redroot pigweed (Amaranthus retroflexus); assay: Pre-emergence application, herbicidal effect on redroot pigweed (Table 1); format: in vivo; settings: 10 g./a., 20 days after application, score 0-5

Kindly note the recorded Herbicidal effect, redroot pigweed for CCCOP(=O)(SCC)SCC(=O)N1CCCCC1CC (stereo not shown) , which is 4

Kindly note the recorded Herbicidal effect, redroot pigweed for CCCCOP(=O)(SCCC)SCC(=O)N1CCCCC1CC (stereo not shown) , which is 4

Kindly note the recorded Herbicidal effect, redroot pigweed for CCCOP(=O)(SCCC)SCC(=O)N1CCCCC1CC (stereo not shown) , which is 5

Kindly note the recorded Herbicidal effect, redroot pigweed for CCOP(=O)(SCC(=O)N1CCC(C)CC1)SC(C)C (stereo not shown) , which is 4

Kindly note the recorded Herbicidal effect, redroot pigweed for CCOP(=O)(SCC(=O)N1CCCCC1C)SCc1ccc(CC)cc1 (stereo not shown) , which is 3

Kindly note the recorded Herbicidal effect, redroot pigweed for CCOP(=O)(SCC)SCC(=O)N1CCCCC1C (stereo not shown) , which is 4

Kindly note the recorded Herbicidal effect, redroot pigweed for CCOP(=O)(SCC)SCC(=O)N1CCC(C)CC1 (stereo not shown) , which is 4

Kindly note the recorded Herbicidal effect, redroot pigweed for CCCCOP(=O)(SCC)SCC(=O)N1CCCCC1C (stereo not shown) , which is 4

Kindly note the recorded Herbicidal effect, redroot pigweed for CCCSP(=O)(OCC)SCC(=O)N1CCCC(C)C1 (stereo not shown) , which is 4

Kindly note the recorded Herbicidal effect, redroot pigweed for C=CCSP(=O)(OCCC)SCC(=O)N1CCCCC1C (stereo not shown) , which is 5
